Entries annotated with measured EC50 (read off the curve)
Biological target: T1, human ROR1 expressed on the cell surface (human, UniProt Q01973 30-937)
T1 construct: whole, on cells; also called cell surface-expressed ROR1 antigen; ROR1 on JeKo-1, Mino, CHO-human ROR1, MC38-human ROR1 and other cancer cell lines
T1 sequence (Q01973 30-937): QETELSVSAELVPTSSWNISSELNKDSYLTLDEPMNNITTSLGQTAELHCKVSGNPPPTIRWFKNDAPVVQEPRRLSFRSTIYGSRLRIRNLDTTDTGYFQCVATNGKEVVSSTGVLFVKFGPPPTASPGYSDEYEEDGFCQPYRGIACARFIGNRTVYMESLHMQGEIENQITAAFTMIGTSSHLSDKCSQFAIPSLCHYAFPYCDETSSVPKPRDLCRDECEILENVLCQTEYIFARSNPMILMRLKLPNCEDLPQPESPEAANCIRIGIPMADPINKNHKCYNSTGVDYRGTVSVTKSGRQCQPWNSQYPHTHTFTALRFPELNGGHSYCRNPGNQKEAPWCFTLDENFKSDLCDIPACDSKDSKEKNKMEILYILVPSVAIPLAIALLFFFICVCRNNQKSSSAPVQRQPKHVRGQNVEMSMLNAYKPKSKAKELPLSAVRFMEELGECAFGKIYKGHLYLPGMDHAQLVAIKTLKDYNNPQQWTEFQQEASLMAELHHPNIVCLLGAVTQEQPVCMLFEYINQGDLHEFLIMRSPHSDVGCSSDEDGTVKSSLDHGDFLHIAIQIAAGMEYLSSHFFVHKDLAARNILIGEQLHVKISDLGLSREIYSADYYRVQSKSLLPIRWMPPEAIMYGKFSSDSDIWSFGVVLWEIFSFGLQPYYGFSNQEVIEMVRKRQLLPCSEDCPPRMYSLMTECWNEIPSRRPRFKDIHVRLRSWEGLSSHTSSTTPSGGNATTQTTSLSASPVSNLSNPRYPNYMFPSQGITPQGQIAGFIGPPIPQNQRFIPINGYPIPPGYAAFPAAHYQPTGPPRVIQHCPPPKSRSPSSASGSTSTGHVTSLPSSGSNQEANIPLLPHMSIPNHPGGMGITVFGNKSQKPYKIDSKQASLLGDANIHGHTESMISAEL
Assay: flow cytometry on MC38-human ROR1 cells, IgG titrated, FITC anti-human Fc detection, MFI ratio to 2nd Ab alone; log axis whose first tick is printed 0

anti-ROR1 IgG antibody AB4 (antibody, V domains shown, Full IgG form (human IgG1 constant region, lambda light chain), expressed in CHO-S cells) VH: EVQLLESGGGLVQPGGSLRLSCAASGFTFSSYDMSWVRQAPGKGLEWVSWISPDSGSIYYADSVKGRFTISRDNSKNTLYLQMNSLRAEDTAVYYCARPTGRFDYWGQGTLVTVSS VL: QSVLTQPPSASGTPGQRVTISCSGSSSNIGNNNVNWYQQLPGTAPKLLIYYDNKRPSGVPDRFSGSKSGTSASLAISGLRSEDEADYYCGTWDASLSGYVFGGGTKLTVLG ... ~0.1 mg/L

Q. Entry under review: anti-ROR1 IgG antibody A2F3 (antibody, V domains shown, Full IgG form (human IgG1 constant region, lambda light chain), expressed in CHO-S cells) VH: EVQLLESGGGLVQPGGSLRLSCAASGFTFSSYDMSWVRQAPGKGLEWVSWISPGGGSKYYADSVKGRFTISRDNSKNTLYLQMNSLRAEDTAVYYCARVNGRFDYWGQGTLVTVSS VL: QSVLTQPPSASGTPGQRVTISCSGSSSNIGNNNVSWYQQLPGTAPKLLIYADSHRPSGVPDRFSGSKSGTSASLAISGLRSEDEADYYCATWDYSLSGYVFGGGTKLTVLG . Reported EC50 (read off the curve)?
A. ~0.2 mg/L

Q. Item: anti-ROR1 IgG antibody A2F2 (antibody, V domains shown, Full IgG form (human IgG1 constant region, lambda light chain), expressed in CHO-S cells) VH: EVQLLESGGGLVQPGGSLRLSCAASGFTFSDYYMSWVRQAPGKGLEWVSSISPDGSNTYYADSVKGRFTISRDNSKNTLYLQMNSLRAEDTAVYYCAKNLRAFDYWGQGTLVTVSS VL: QSVLTQPPPASGTPGQRVTISCSGSSSNIGSNTVYWYQQLPGTAPKLLIYANSQRPSGVPDRFSGSKSGTSASLAISGLRSEDEADYYCGSWDYSLSGYVFGGGTKLTVLG
A. ~0.1 mg/L
